Biological target: T1, CREBBP bromodomain (human, UniProt Q92793 1081-1197)
T1 construct: the crystallised construct may differ; also called CBP; KAT3A; source: E. coli BL21(DE3), purified (Ni-NTA, TEV, SEC)
T1 sequence (Q92793 1081-1197): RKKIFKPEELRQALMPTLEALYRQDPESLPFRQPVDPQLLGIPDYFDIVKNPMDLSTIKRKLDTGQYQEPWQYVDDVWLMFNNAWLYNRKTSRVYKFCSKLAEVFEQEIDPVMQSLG
Assay: ITC; peptide (mM stock) titrated into bromodomain (about 50 μM), by the concentrations in the tables; 10 or 15°C, 50 mM HEPES pH 7.5, 150 mM NaCl; single binding site model
Conditions: both partners purified
Where no end group is shown, it is not given here.
MEASUREMENT_KIND: stoichiometry N

BINDER	MEASUREMENT_KIND	OBS_VALUE
ATGGVK(Ac)KPHRY (histone H3, human; the last Y is Y41 of H3; source: synthetic peptide) [H3K36 peptide ATGGVKacKPHRY]	stoichiometry N	1
AHYNK(Ac)RSTITSRE (histone H2B, human; source: synthetic peptide) [H2BK85 peptide AHYNKacRSTITSRE]	stoichiometry N	0.98
GTVALREIRRYQK(Ac)S (histone H3, human; source: synthetic peptide) [H3K56 peptide GTVALREIRRYQKacS]	stoichiometry N	0.96
IRRYQK(Ac)STELLY (histone H3, human; source: synthetic peptide) [H3K56 peptide IRRYQKacSTELLY]	stoichiometry N	0.97
RRGGVK(Ac)RISGLY (histone H4, human; source: synthetic peptide) [H4K44 peptide RRGGVKacRISGLY]	stoichiometry N	1
GGVK(Ac)RISGLI (histone H4, human; source: synthetic peptide) [H4K44 peptide GGVKacRISGLI]	stoichiometry N	1.06
